Molecular target: DAPK1 (human)
Test: radiometric filter-binding kinase assay, Kinase HotSpot
Details: compound 0.5 µM; ATP 10 µM
Property Measured: residual activity (%)
Reply numerically in %, unit not repeated.

Recorded residual activity, per entry:
# Structure Smiles, Measurement
rows = [
    ("O=C1NC(=O)c2c1c1c3ccccc3[nH]c1c1[nH]c3cc(Br)ccc3c21", 73.5),
    ("c1ccc(-c2cnc(Nc3ccc(OCCN4CCCC4)cc3)s2)cc1", 95.1),
    ("N#Cc1c(NC(=O)c2cccc3ccccc23)sc2c1CCCC2", 109),
    ("CCc1nc(-c2ccc(OC)cc2)[nH]c1-c1ccncc1", 97.4),
    ("N/C(=N\\N=C/c1ccc(-c2cccc([N+](=O)[O-])c2)o1)N[N+](=O)[O-]", 97.8),
]

# get_value(readout='residual activity', item= COc1cc2c(N3CCN(C(=O)Nc4ccc(OC(C)C)cc4)CC3)ncnc2cc1OCCCN1CCCCC1 )
103

# get_value(readout='residual activity', item= Cc1cc(Nc2nc(-c3ccccc3)nc3ccccc23)n[nH]1 )
39.1

# get_value(readout='residual activity', item= FC(F)(F)c1ccc(/C=C/c2nc(COc3ccc(CCCCn4ccnn4)cc3)co2)cc1 )
91.3

# get_value(readout='residual activity', item= O=S(=O)(NCCNC/C=C/c1ccc(Br)cc1)c1cccc2cnccc12 )
81.5

# get_value(readout='residual activity', item= COc1cc2c(cc1OC)-c1[nH]nc(Nc3cccc(F)c3)c1C2 )
90.7

# get_value(readout='residual activity', item= O=c1c(-c2ccc(F)cc2)c(-c2ccncc2)[nH]n1-c1ccc(Cl)cc1 )
84.5
